// reported rel. KD (against wildtype ActR-IIBECD on the same ligand) per item
Biological target: T1, BMP-7 (CHO cells, R&D Systems) (UniProt P18075 293-431, biotin (biotinylated for the biosensor; site not stated))
T1 construct: bone morphogenetic protein 7 (BMP-7), mature ligand; source: bought: R&D Systems (CHO cells)
T1 sequence (looked up): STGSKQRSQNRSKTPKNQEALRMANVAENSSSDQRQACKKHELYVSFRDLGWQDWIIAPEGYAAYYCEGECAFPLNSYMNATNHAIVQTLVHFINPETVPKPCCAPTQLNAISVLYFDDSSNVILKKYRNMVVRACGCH
Experiment: SPR; BIACORE 2000; biotinylated ligand on a streptavidin-modified CM5 chip (about 200 RU); receptor ectodomain as analyte at 1, 2, 3, 5, 10, 20 and 50 uM; HBS500 (10 mM HEPES pH 7.4, 500 mM NaCl, 3.4 mM EDTA, 0.005% P20); apparent KD from the dose dependence of equilibrium binding
Conditions: both partners purified
OBSERVABLE: rel. KD (against wildtype ActR-IIBECD on the same ligand) (fold)

BINDER: ActR-IIBECD Y42A (receptor, UniProt P27040 19-137, looked up, source: E. coli OrigamiB (DE3), purified (Ni2+-IMAC, thrombin cleavage, anion exchange, RP-HPLC)) SGRGEAETRECIYYNANWELERTNQSGLERCEGEQDKRLHCAASWRNSSGTIELVKKGCWLDDFNCYDRQECVATEENPQVYFCCCEGNFCNERFTHLPEPGGPEVTYEPPPTAPTLLT
UNIT_TAG: fold
EXPERIMENTAL_RESULT: 49
//
BINDER: ActR-IIBECD D63A (receptor, UniProt P27040 19-137, looked up, source: E. coli OrigamiB (DE3), purified (Ni2+-IMAC, thrombin cleavage, anion exchange, RP-HPLC)) SGRGEAETRECIYYNANWELERTNQSGLERCEGEQDKRLHCYASWRNSSGTIELVKKGCWLDAFNCYDRQECVATEENPQVYFCCCEGNFCNERFTHLPEPGGPEVTYEPPPTAPTLLT
UNIT_TAG: fold
EXPERIMENTAL_RESULT: 6.7
//
BINDER: ActR-IIBECD Q80A (receptor, UniProt P27040 19-137, looked up, source: E. coli OrigamiB (DE3), purified (Ni2+-IMAC, thrombin cleavage, anion exchange, RP-HPLC)) SGRGEAETRECIYYNANWELERTNQSGLERCEGEQDKRLHCYASWRNSSGTIELVKKGCWLDDFNCYDRQECVATEENPAVYFCCCEGNFCNERFTHLPEPGGPEVTYEPPPTAPTLLT
UNIT_TAG: fold
EXPERIMENTAL_RESULT: 1
//
BINDER: ActR-IIBECD R46A (receptor, UniProt P27040 19-137, looked up, source: E. coli OrigamiB (DE3), purified (Ni2+-IMAC, thrombin cleavage, anion exchange, RP-HPLC)) SGRGEAETRECIYYNANWELERTNQSGLERCEGEQDKRLHCYASWANSSGTIELVKKGCWLDDFNCYDRQECVATEENPQVYFCCCEGNFCNERFTHLPEPGGPEVTYEPPPTAPTLLT
UNIT_TAG: fold
EXPERIMENTAL_RESULT: 3.3
//
BINDER: ActR-IIBECD K37A (receptor, UniProt P27040 19-137, looked up, source: E. coli OrigamiB (DE3), purified (Ni2+-IMAC, thrombin cleavage, anion exchange, RP-HPLC)) SGRGEAETRECIYYNANWELERTNQSGLERCEGEQDARLHCYASWRNSSGTIELVKKGCWLDDFNCYDRQECVATEENPQVYFCCCEGNFCNERFTHLPEPGGPEVTYEPPPTAPTLLT
UNIT_TAG: fold
EXPERIMENTAL_RESULT: 0.3
//
BINDER: ActR-IIBECD E34A (receptor, UniProt P27040 19-137, looked up, source: E. coli OrigamiB (DE3), purified (Ni2+-IMAC, thrombin cleavage, anion exchange, RP-HPLC)) SGRGEAETRECIYYNANWELERTNQSGLERCEGAQDKRLHCYASWRNSSGTIELVKKGCWLDDFNCYDRQECVATEENPQVYFCCCEGNFCNERFTHLPEPGGPEVTYEPPPTAPTLLT
UNIT_TAG: fold
EXPERIMENTAL_RESULT: 1.8
//
BINDER: ActR-IIBECD K56A (receptor, UniProt P27040 19-137, looked up, source: E. coli OrigamiB (DE3), purified (Ni2+-IMAC, thrombin cleavage, anion exchange, RP-HPLC)) SGRGEAETRECIYYNANWELERTNQSGLERCEGEQDKRLHCYASWRNSSGTIELVAKGCWLDDFNCYDRQECVATEENPQVYFCCCEGNFCNERFTHLPEPGGPEVTYEPPPTAPTLLT
UNIT_TAG: fold
EXPERIMENTAL_RESULT: 14
//
BINDER: ActR-IIBECD L61A (receptor, UniProt P27040 19-137, looked up, also called ActR-IIBL61A; source: E. coli OrigamiB (DE3), purified (Ni2+-IMAC, thrombin cleavage, anion exchange, RP-HPLC)) SGRGEAETRECIYYNANWELERTNQSGLERCEGEQDKRLHCYASWRNSSGTIELVKKGCWADDFNCYDRQECVATEENPQVYFCCCEGNFCNERFTHLPEPGGPEVTYEPPPTAPTLLT
UNIT_TAG: fold
EXPERIMENTAL_RESULT: 6.4
//
BINDER: ActR-IIBECD L61P (receptor, UniProt P27040 19-137, looked up, also called ActR-IIBL61P; source: E. coli OrigamiB (DE3), purified (Ni2+-IMAC, thrombin cleavage, anion exchange, RP-HPLC)) SGRGEAETRECIYYNANWELERTNQSGLERCEGEQDKRLHCYASWRNSSGTIELVKKGCWPDDFNCYDRQECVATEENPQVYFCCCEGNFCNERFTHLPEPGGPEVTYEPPPTAPTLLT
UNIT_TAG: fold
EXPERIMENTAL_RESULT: 19

All figures here come from paper PMC1802081.
